Assay: Approximate solubility in solvents at 25° C. and 50° C. by visual observation
Assay type: physicochemical
Conditions: organic solvent or mixture, thermodynamic from solid; Methyl ethyl ketone (MEK), 50° C.; read-out: Solubility
endpointName: Solubility

// field: Solubility; key: CCOC(=O)[C@H](C)NP(=O)(COCCn1cnc2c(OC)nc(N)nc21)OCc1ccccc1 (stereo partly shown) ; value = > 500 mg/mL

###

Test: Approximate solubility in solvents at 25° C. and 50° C. by visual observation
Type: physicochemical
Details: organic solvent or mixture, thermodynamic from solid; Acetonitrile (ACN), 25° C.; read-out: Solubility
endpointName: Solubility

Lab book: Solubility of CCOC(=O)[C@H](C)NP(=O)(COCCn1cnc2c(OC)nc(N)nc21)OCc1ccccc1 (stereo partly shown) [Compound I] noted as > 100 mg/mL
